- TARGET_SYSTEM: Retinaldehyde dehydrogenase 3 (Homo sapiens)
- PROTOCOL_DETAILS: qHTS for Inhibitors of the Aldehyde Dehydrogenase Family (ALDH1A3) Validation screen (AID 2061312); note: nearly all actives have a fitted effect of over 45% in size
- PROTOCOL_CONDITIONS: ALDH1A3 enzyme inhibition qHTS validation, fluorescence; series mostly up to 84.7 µM
Inconclusive results are not listed. The source made the active and inactive calls. Calls come from the whole dose curve; as a rule, active = well fitted inhibition curve with a large enough effect; inconclusive = small, poorly fitted or top-dose-only effect; inactive = no such curve, though single readings can be large or run the other way.
Write down one outcome, taken from TRUE for active, FALSE for inactive

COMPOUND: O=C(Nc1ccccc1)c1cc([N+](=O)[O-])ccc1Cl
CLASS: FALSE
//
COMPOUND: CCOC(=O)C1=C(C)NC2=C(C(=O)CC(C)(C)C2)C1c1ccc(-c2ccccc2)cc1 (stereo not given)
CLASS: FALSE
//
COMPOUND: NCCCCN=C(N)N
CLASS: FALSE
//
COMPOUND: CC(C)(C(=O)O)c1ccc(C(O)CCCN2CCC(C(O)(c3ccccc3)c3ccccc3)CC2)cc1 (stereo not given)
CLASS: FALSE

Input line: Which result was noted for this compound in the test: `O=c1cc(OCc2ccc(F)cc2)ccn1-c1ccc(OCCN2CCCC2)cc1`
Output line: FALSE

Input line: Record request — test call for CCOC(=O)N1CCC(CN(Cc2ccc(Cl)cc2)Cc2ccc([N+](=O)[O-])s2)C1 (stereo not given)
Output line: TRUE

Input line: Please indicate how the test categorized `CS(=O)(=O)Nc1ccc([N+](=O)[O-])cc1Oc1ccccc1` .
Output line: FALSE

Input line: Given `NC/C=C/C(=O)O` , state the outcome it received in this test.
Output line: FALSE

Input line: Call for entry `Cn1c2ccc(NC(=O)c3ccccc3)cc2c(=O)n2nc(C(=O)O)cc12` :
Output line: FALSE

Input line: Hi team, can someone confirm the assay call for `CC1(C)CCC(c2ccc(Cl)cc2)=C(CN2CCN(c3ccc(C(=O)NS(=O)(=O)c4ccc(N[C@H](CCN5CCOCC5)CSc5ccccc5)c(S(=O)(=O)C(F)(F)F)c4)cc3)CC2)C1` ?
Output line: FALSE
